- measured-target: Aurora kinase A (Homo sapiens)
- Sequence (O14965 whole entry): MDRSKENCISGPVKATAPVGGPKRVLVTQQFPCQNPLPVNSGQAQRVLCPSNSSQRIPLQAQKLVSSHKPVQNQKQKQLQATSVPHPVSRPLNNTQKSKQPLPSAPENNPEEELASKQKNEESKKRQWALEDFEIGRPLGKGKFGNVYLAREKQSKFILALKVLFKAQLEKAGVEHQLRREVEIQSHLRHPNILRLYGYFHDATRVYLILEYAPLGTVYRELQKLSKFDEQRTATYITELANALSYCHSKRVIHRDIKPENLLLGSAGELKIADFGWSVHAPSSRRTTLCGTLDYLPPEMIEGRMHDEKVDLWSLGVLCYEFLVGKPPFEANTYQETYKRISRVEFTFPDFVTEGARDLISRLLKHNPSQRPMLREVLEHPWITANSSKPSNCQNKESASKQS
result-type: IC50 (µM)

>>> reported_value("Cc1cc(Nc2cc(N3CCOCC3)nc(Nc3ccc(F)c(Cl)c3)n2)n[nH]1")
0.0063
>>> reported_value("Cc1cc(Nc2cc(N3CCN(C)CC3)nc(Nc3ccc(F)c(Cl)c3)n2)n[nH]1")
0.0071

A. Cc1cc(Nc2cc(N3CCN(C)CC3)nc(Nc3cccc(F)c3)n2)n[nH]1
B. COC(=O)c1ccc(Nc2nc(Nc3cc(C)[nH]n3)cc(N3CCN(C)CC3)n2)cc1OC
In terms of reported IC50, does A or B have the smaller number? // caller expects the label of the chosen entry
A

Where these numbers come from: ChEMBL document CHEMBL4145494
